- Test system: Bacteroides stercoris
- MEASUREMENT PROTOCOL: growth AUC relative to DMSO control (median of replicates) (fraction); higher = more growth (less inhibition), active = hit call of the paper
- EXPERIMENTAL SETUP: 20 µM; 24 h
Quick rule: growth AUC of at least 1 means Criterion met, below that means Criterion not met.

// known answers, use as guide
MOLECULE: CCOC(=O)Cc1[nH]nc2ccc(Cl)cc12
LABEL CLASS: Criterion met
//
MOLECULE: CC(C)C(O)(c1ccc(OC(F)(F)F)cc1)c1cncnc1 (stereo not given)
LABEL CLASS: Criterion met

Please tell me: is the molecule CC(CNC(=S)[S-])NC(=S)[S-].[Zn+2] (mixture of isomers) at or over 1 in terms of growth AUC?
Criterion met

Please tell me: is the molecule COC1CCC2(CC1)NC(=O)C(c1cc(C)ccc1C)=C2O (stereo not given) at or over 1 in terms of growth AUC?
Criterion met

Please tell me: is the molecule CSc1nc(NC2CC2)nc(NC(C)(C)C)n1 at or over 1 in terms of growth AUC?
Criterion not met

Please tell me: is the molecule CCCCCCC(C)OC(=O)COc1nc(F)c(Cl)c(N)c1Cl (stereo not given) at or over 1 in terms of growth AUC?
Criterion not met

Please tell me: is the molecule CN(C)C(=O)NC1CCCCCCC1 at or over 1 in terms of growth AUC?
Criterion met

Please tell me: is the molecule CCCCC(CC)COC(=O)COc1cc(Cl)c(Cl)cc1Cl (stereo not given) at or over 1 in terms of growth AUC?
Criterion met

----------
- Tested on: Eubacterium rectale
- MEASUREMENT PROTOCOL: growth AUC relative to DMSO control (median of replicates) (fraction); higher = more growth (less inhibition), active = hit call of the paper
- EXPERIMENTAL SETUP: 20 µM; 24 h
ENDPOINT: growth AUC
One number for each entry.

Sample records with growth AUC:
COMPOUND: CCCCCCCC(=O)Oc1c(Br)cc(C#N)cc1Br
SYSTEM: Eubacterium rectale
growth AUC: 1.15
//
COMPOUND: CCNc1nc(N)nc(Cl)n1
SYSTEM: Eubacterium rectale
growth AUC: 1.02
//
COMPOUND: O=C(O)Cc1c(Cl)ccc(Cl)c1Cl
SYSTEM: Eubacterium rectale
growth AUC: 0.96
//
COMPOUND: COCCCNc1nc(NC(C)C)nc(SC)n1
SYSTEM: Eubacterium rectale
growth AUC: 0.914
//
COMPOUND: CNC(=O)/C(=N/OC)c1ccccc1COc1cc(C)ccc1C
SYSTEM: Eubacterium rectale
growth AUC: 0.92
//
COMPOUND: C=CCOC(Cn1ccnc1)c1ccc(Cl)cc1Cl (stereo not drawn)
SYSTEM: Eubacterium rectale
growth AUC: 0.0607

Count: 7. Required value per item: growth AUC.
1. O=C(O)CNC(=O)c1cnccc1C(F)(F)F
2. Cc1cc(C)c(C2=C(O)C3(CCCC3)OC2=O)c(C)c1
3. CCOC(=O)Nc1cccc(OC(=O)Nc2cccc(C)c2)c1
4. O=C=NC1CCC(CC2CCC(N=C=O)CC2)CC1 (stereo not drawn)
5. COc1ccc(Cl)c(Cl)c1Cl
6. CCCCCCCC/C=C\CCCCCCCCCCCCC
7. CCOC(=O)[C@@H](C)Oc1ccc(Oc2nc3ccc(Cl)cc3o2)cc1

1. 1.01
2. 0.996
3. 1.01
4. 0.973
5. 0.966
6. 0.946
7. 0.876

Count: 3. Required value per item: growth AUC.
1. COCCN(C(=O)CO)c1c(C)cccc1C(=O)O
2. O=C(O)COc1ccc(Cl)cc1CO
3. CC(C)OC(=O)[C@@H](C)N(C(=O)c1ccccc1)c1ccc(F)c(Cl)c1

1.09
1.05
1.27

Count: 7. Required value per item: growth AUC.
1. Cc1nn(C)c(OCC(=O)c2ccccc2)c1C(=O)c1ccc(Cl)cc1Cl
2. COc1cccc(N(C)C(=S)Oc2cccc(C(C)(C)C)c2)n1
3. CC(C)(SC(=O)N1CCCCC1)c1ccccc1
4. CCCN(CCOc1c(Cl)cc(Cl)cc1Cl)C(N)=O
5. COCC(=O)N(c1c(C)cccc1C(=O)O)C(C)C(=O)O (stereo not drawn)
6. O=c1cc(Cl)[nH]nc1-c1ccccc1
7. c1cc2ccc3ccc4ccc5cccc6c(c1)c2c3c4c56

[1.04, 0.896, 1.02, 1, 0.949, 0.939, 0.999]

The measured values listed here are drawn from the supplement of paper PMC12669032.
